Data provenance: a melting point compilation (Tetko et al.; mined from patent text by program, amines drawn as free bases though some values may be those of a salt)

Each item that follows carries a reported melting point.
measurementType: melting point

{"molecule": "CCn1c(COC)nc(C(C)C)c1Sc1cc(C#N)cc(C#N)c1", "measurementType": "melting point", "endpointResult": "156 to 158 °C"}
{"molecule": "COC(=O)NS(=O)(=O)Nc1c(C(C)C)cccc1C(C)C", "measurementType": "melting point", "endpointResult": "152 to 155 °C"}
{"molecule": "O=C(C(=O)c1cccc(Br)c1)c1cc[nH]c1", "measurementType": "melting point", "endpointResult": "111 to 113 °C"}
{"molecule": "CC1CC(c2ccccc2)(N(C)C)CCC1=O (stereo unspecified)", "measurementType": "melting point", "endpointResult": "50 °C"}
{"molecule": "NC1N=CC=CC1(N)Br (stereo unspecified)", "measurementType": "melting point", "endpointResult": "158 to 160 °C"}
{"molecule": "CC(=O)N1CCC(Cl)c2nc3ccccc3c(C)c2C1 (stereo unspecified)", "measurementType": "melting point", "endpointResult": "< 20 °C"}
{"molecule": "COCCC(=O)N[C@H]1CC[C@H](CCN2CCC(c3ccc(F)c4occc34)CC2)CC1", "measurementType": "melting point", "endpointResult": "177 °C"}
{"molecule": "CC(=O)NC(=NNNc1ccccc1[N+](=O)[O-])c1ccccc1Cl", "measurementType": "melting point", "endpointResult": "196 to 198 °C"}
{"molecule": "O=C(O)COc1c(Cl)cc2c(-c3ccccc3F)noc2c1Cl", "measurementType": "melting point", "endpointResult": "160 to 170 °C"}
{"molecule": "O=C(O)c1cnn2c(C(F)(F)F)cc(-c3ccc(C(F)(F)F)c(OCC(F)(F)F)c3)nc12", "measurementType": "melting point", "endpointResult": "264 °C"}
{"molecule": "CCOC(=O)NNC(=O)NCCCl", "measurementType": "melting point", "endpointResult": "118 to 120 °C"}
